Test system: AD38 cells
Assay: Viability of AD38 cells (Promega CellTiter-Glo)
Format: cell-based
Conditions: 10 μM compound, 6 days, CellTiter-Glo luminescence normalized to DMSO control (100%)
AD38 Viability Normalized Result (cmpd/DMSO %) at 10 μM overview
Give just the numeric value; % need not be written.

Worked examples, 4 compounds total:
{"columns": ["CPD_SMILES", "VALUE_OBSERVED"],
 "data": [
  ["CN(C)CCSc1ncc(CNC(=O)c2ccc3c(c2)NC(=O)c2ccccc2S3)s1", 82],
  ["Cc1c(C(=O)NCc2cnc(-c3ccc(C#N)cc3)s2)ccc2c1NC(=O)c1ccccc1O2", 106],
  ["O=C(NCc1cnc(-c2cnc(O)nc2)s1)c1ccc2c(c1)NC(=O)c1ccccc1O2", 94],
  ["O=C(NCc1cnc(N2CCOCC2)s1)c1ccc2c(c1)NC(=O)c1ccccc1O2", 100]
]}

AD38 Viability Normalized Result (cmpd/DMSO %) at 10 μM of Cc1c(C(=O)NCc2cnc(C(F)(F)F)s2)ccc2c1NC(=O)c1ccccc1S2 on AD38 cells?
98

AD38 Viability Normalized Result (cmpd/DMSO %) at 10 μM of CCOC(=O)/C=C/c1cnn(-c2ncc(CNC(=O)c3ccc4c(c3)NC(=O)c3ccccc3S4(=O)=O)s2)c1 on AD38 cells?
95

AD38 Viability Normalized Result (cmpd/DMSO %) at 10 μM of Nc1ncc(-c2ncc(CNC(=O)c3ccc4c(c3)NC(=O)c3ccccc3O4)s2)cn1 on AD38 cells?
96

AD38 Viability Normalized Result (cmpd/DMSO %) at 10 μM of COc1c(C)cc(-c2ncc(CNC(=O)c3ccc4c(c3)NC(=O)c3ccccc3S4(=O)=O)s2)cc1C on AD38 cells?
66

AD38 Viability Normalized Result (cmpd/DMSO %) at 10 μM of O=C1Cc2cc(-c3ncc(CNC(=O)c4ccc5c(c4)NC(=O)c4ccccc4O5)s3)ccc2N1 on AD38 cells?
102

AD38 Viability Normalized Result (cmpd/DMSO %) at 10 μM of CS(=O)(=O)Nc1ccc(-c2ncc(CNC(=O)c3ccc4c(c3)NC(=O)c3ccccc3O4)s2)cc1 on AD38 cells?
106

AD38 Viability Normalized Result (cmpd/DMSO %) at 10 μM of NCCC#Cc1ccc(-c2ncc(CNC(=O)c3ccc4c(c3)NC(=O)c3ccccc3S4(=O)=O)s2)cc1 on AD38 cells?
90

AD38 Viability Normalized Result (cmpd/DMSO %) at 10 μM of CN(C)CC1(COc2ccc(-c3ncc(CNC(=O)c4ccc5c(c4)NC(=O)c4ccccc4S5(=O)=O)s3)cc2)CC1 on AD38 cells?
100

AD38 Viability Normalized Result (cmpd/DMSO %) at 10 μM of CNCCCOc1ccc(-c2ncc(CNC(=O)c3ccc4c(c3)NC(=O)c3ccccc3S4(=O)=O)s2)cc1 on AD38 cells?
90

AD38 Viability Normalized Result (cmpd/DMSO %) at 10 μM of CN(C)CCOc1ncc(CNC(=O)c2ccc3c(c2)NC(=O)c2ccccc2S3(=O)=O)s1 on AD38 cells?
83

AD38 Viability Normalized Result (cmpd/DMSO %) at 10 μM of CN(C)CCCSc1ccc(-c2ncc(CNC(=O)c3ccc4c(c3)NC(=O)c3ccccc3S4(=O)=O)s2)cc1 on AD38 cells?
97

====

Tested on: AD38 cells
Assay: Viability of AD38 cells (Promega CellTiter-Glo)
Assay type: cell-based
Conditions: 10 μM compound, 6 days, CellTiter-Glo luminescence normalized to DMSO control (100%)
ATTRIBUTE_MEASURED: AD38 Viability Normalized Result (cmpd/DMSO %) at 10 μM
Give just the numeric value; % need not be written.

Worked examples, 3 molecules total:
{"columns": ["CPD_SMILES", "VALUE_OBSERVED"],
 "data": [
  ["O=C(NCc1cnc(-c2ccc(OCC3CNC3)cc2)s1)c1ccc2c(c1)NC(=O)c1ccccc1S2(=O)=O.O=C(O)C(F)(F)F", 103],
  ["O=C(NCc1cnc(-c2ccc(N3CCCC3=O)cc2)s1)c1ccc2c(c1)NC(=O)c1ccccc1S2(=O)=O", 103],
  ["O=C(NCc1cnc(-c2ccc3[nH]cnc3c2)s1)c1ccc2c(c1)NC(=O)c1ccccc1O2", 102]
]}

Please give the measured AD38 Viability Normalized Result (cmpd/DMSO %) at 10 μM for this molecule: O=C(NCc1cnc(-c2ccc(O)cc2)s1)c1ccc2c(c1)NC(=O)c1ccccc1O2
100

====

AD38 Viability Normalized Result (cmpd/DMSO %) at 10 μM overview
System: AD38 cells
Assay: Viability of AD38 cells (Promega CellTiter-Glo)
Assay type: cell-based
Conditions: 10 μM compound, 6 days, CellTiter-Glo luminescence normalized to DMSO control (100%)
Give just the numeric value; % need not be written.

{"columns": ["CPD_SMILES", "VALUE_OBSERVED"],
 "data": [
  ["COc1ccnc(-c2ncc(CNC(=O)c3ccc4c(c3)NC(=O)c3ccccc3S4(=O)=O)s2)c1", 124],
  ["O=C1CCN(c2ncc(CNC(=O)c3ccc4c(c3)NC(=O)c3ccccc3S4(=O)=O)s2)CC1", 89],
  ["N#Cc1ccc(-c2ncc(CNC(=O)c3ccc4c(c3)NC(=O)c3ccccc3S4(=O)=O)s2)cc1", 68],
  ["Cc1c(C(=O)NCc2cnc(-c3ccc(O)cc3)s2)ccc2c1NC(=O)c1ccccc1S2", 93],
  ["COC(=O)c1ccc(-c2ncc(CNC(=O)c3ccc4c(c3)NC(=O)c3ccccc3S4)s2)cc1", 98],
  ["COc1cccc(Cc2ncc(CNC(=O)c3ccc4c(c3)NC(=O)c3ccccc3S4(=O)=O)s2)c1", 89],
  ["Cc1c(C(=O)NCc2cnc(-n3cccn3)s2)ccc2c1NC(=O)c1ccccc1S2", 95]
]}

Please give the measured AD38 Viability Normalized Result (cmpd/DMSO %) at 10 μM for this molecule: O=C(NCc1cnc(-c2ccc(C#CCCN3CCOCC3)cc2)s1)c1ccc2c(c1)NC(=O)c1ccccc1S2(=O)=O
95

====

Tested on: AD38 cells
Assay: Viability of AD38 cells (Promega CellTiter-Glo)
Type: cell-based
Details: 10 μM compound, 6 days, CellTiter-Glo luminescence normalized to DMSO control (100%)
AD38 Viability Normalized Result (cmpd/DMSO %) at 10 μM overview
Give just the numeric value; % need not be written.

Worked examples, 5 compounds total:
{"columns": ["COMPOUND", "VALUE_OBSERVED"],
 "data": [
  ["O=C(NCc1cnc(-c2ccc(O)nc2)s1)c1ccc2c(c1)NC(=O)c1ccccc1O2 [compound 1706]", 103],
  ["CCN(CC)CCCOc1ccc(-c2ncc(CNC(=O)c3ccc4c(c3)NC(=O)c3ccccc3S4(=O)=O)s2)cc1 [compound 11073]", 94],
  ["O=C(NCc1cnc(N2CCC(O)CC2)s1)c1ccc2c(c1)NC(=O)c1ccccc1S2(=O)=O [compound 1859]", 89],
  ["O=C(NCc1cnc(-c2ccc(O)cc2)s1)c1ccc2c(c1)NC(=O)c1cccc(F)c1S2 [compound 1753]", 97],
  ["Cc1cc2c(cc1C(=O)NCc1cncs1)NC(=O)c1ccccc1S2 [compound 1496]", 57]
]}

Please give the measured AD38 Viability Normalized Result (cmpd/DMSO %) at 10 μM for this compound: CC(=O)Nc1ccc(-c2ncc(CNC(=O)c3ccc4c(c3)NC(=O)c3ccccc3S4(=O)=O)s2)cc1 [compound 1932]
101

Please give the measured AD38 Viability Normalized Result (cmpd/DMSO %) at 10 μM for this compound: O=C(NCc1cnc(-c2ccc(O)c(Cl)c2)s1)c1ccc2c(c1)NC(=O)c1ccccc1O2 [compound 1702]
102

Please give the measured AD38 Viability Normalized Result (cmpd/DMSO %) at 10 μM for this compound: CC(C)(C)NCCCCc1ccc(-c2ncc(CNC(=O)c3ccc4c(c3)NC(=O)c3ccccc3S4(=O)=O)s2)cc1 [compound 11054]
102

Please give the measured AD38 Viability Normalized Result (cmpd/DMSO %) at 10 μM for this compound: N#Cc1ccnc(-c2ncc(CNC(=O)c3ccc4c(c3)NC(=O)c3ccccc3S4(=O)=O)s2)c1 [compound 11051]
103

====

System: AD38 cells
Assay: Viability of AD38 cells (Promega CellTiter-Glo)
Type: cell-based
Conditions: 10 μM compound, 6 days, CellTiter-Glo luminescence normalized to DMSO control (100%)
ATTRIBUTE_MEASURED: AD38 Viability Normalized Result (cmpd/DMSO %) at 10 μM
Give just the numeric value; % need not be written.

Worked examples, 3 compounds total:
{"columns": ["COMPOUND", "VALUE_OBSERVED"],
 "data": [
  ["O=C(NCc1cnc(-c2ccc(O)cc2)s1)c1ccc2c(c1)NC(=O)c1ccccc1C2", 96],
  ["O=C(O)CSc1ncc(CNC(=O)c2ccc3c(c2)NC(=O)c2ccccc2O3)s1", 103],
  ["N#Cc1ccc(-c2ncc(CNC(=O)c3ccc4c(c3)NC(=O)c3ccccc3S4(=O)=O)s2)cc1Cl", 97]
]}

Please give the measured AD38 Viability Normalized Result (cmpd/DMSO %) at 10 μM for this compound: O=C(NCc1cnc(-c2ccc(F)cc2)s1)c1ccc2c(c1)NC(=O)c1ccccc1S2
105

Please give the measured AD38 Viability Normalized Result (cmpd/DMSO %) at 10 μM for this compound: O=C(O)CNc1ncc(CNC(=O)c2ccc3c(c2)NC(=O)c2ccccc2O3)s1
103

Please give the measured AD38 Viability Normalized Result (cmpd/DMSO %) at 10 μM for this compound: CN(C)c1ccc(-c2ncc(CNC(=O)c3ccc4c(c3)NC(=O)c3ccccc3S4(=O)=O)s2)cn1
121

Please give the measured AD38 Viability Normalized Result (cmpd/DMSO %) at 10 μM for this compound: O=C(NCc1cnc(-c2ccc(OCCCN3CCC(C(=O)O)C3)cc2)s1)c1ccc2c(c1)NC(=O)c1ccccc1S2(=O)=O (stereo not shown)
96
